# ASSAYED SYSTEM: Delta-type opioid receptor (Homo sapiens)
# Sequence (P41143 whole entry): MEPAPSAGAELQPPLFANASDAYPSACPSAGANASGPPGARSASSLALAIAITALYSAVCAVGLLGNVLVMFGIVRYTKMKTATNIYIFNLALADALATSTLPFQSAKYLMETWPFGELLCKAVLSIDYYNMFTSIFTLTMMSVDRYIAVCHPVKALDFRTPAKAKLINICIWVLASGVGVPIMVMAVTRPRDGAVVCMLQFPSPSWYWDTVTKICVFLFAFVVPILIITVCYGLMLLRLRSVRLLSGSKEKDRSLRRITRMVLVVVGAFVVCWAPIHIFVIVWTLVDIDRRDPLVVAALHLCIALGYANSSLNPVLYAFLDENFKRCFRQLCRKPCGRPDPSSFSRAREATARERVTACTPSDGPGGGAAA
# EXPERIMENT NOTES: Displacement of [3H]DPN from human recombinant delta-type opioid receptor expressed in CHO cell membranes
pKi: −log10 of the molar value.
OBSERVED PROPERTY: pKi

>>> result("O=C(NCCCN1CCC(c2c(Cl)cccc2Cl)CC1)[C@H]1CCCN1Cc1ccccc1")
"< 6.00"

----------
# ASSAYED SYSTEM: Nociceptin receptor (Homo sapiens)
# Sequence (P41146 whole entry): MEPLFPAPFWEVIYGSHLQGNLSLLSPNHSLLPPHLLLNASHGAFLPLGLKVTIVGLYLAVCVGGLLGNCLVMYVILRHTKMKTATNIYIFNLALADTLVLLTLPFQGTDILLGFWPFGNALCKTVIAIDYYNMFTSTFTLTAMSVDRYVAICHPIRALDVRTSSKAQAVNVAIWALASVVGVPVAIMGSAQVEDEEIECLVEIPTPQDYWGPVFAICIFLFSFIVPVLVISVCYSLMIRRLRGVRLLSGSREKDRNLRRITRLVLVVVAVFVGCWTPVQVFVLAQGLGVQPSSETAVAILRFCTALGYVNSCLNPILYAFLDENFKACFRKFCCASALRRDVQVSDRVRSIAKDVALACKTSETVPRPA
# EXPERIMENT NOTES: Displacement of [3H]N/OFQ from human recombinant NOP receptor expressed in CHO cells
OBSERVED PROPERTY: log10 Ki (log10 of the value in nM)

>>> number("c1ccc(CN2CCC[C@@H]2CNCCCN2CCC3(CC2)OCc2ccccc23)cc1")
1.69
>>> number("O=C(NCCCN1CCC(c2c(Cl)cccc2Cl)CC1)[C@@H]1CCCN1Cc1ccccc1")
1.92
>>> number("O=C(NCCCN1CCC2(CC1)OCc1ccccc12)[C@H]1CCCN1Cc1ccccc1")
-0.62
>>> number("O=C(OCCCN1CCC2(CC1)OCc1ccccc12)[C@H]1CCCN1Cc1ccccc1")
2.03
>>> number("O=C(NCCCN1CCC(c2c(Cl)cccc2Cl)CC1)[C@H]1CCCN1Cc1ccccc1")
-0.14

----------
# ASSAYED SYSTEM: Mu-type opioid receptor (Homo sapiens, UniProt P35372)
# Sequence (P35372 whole entry): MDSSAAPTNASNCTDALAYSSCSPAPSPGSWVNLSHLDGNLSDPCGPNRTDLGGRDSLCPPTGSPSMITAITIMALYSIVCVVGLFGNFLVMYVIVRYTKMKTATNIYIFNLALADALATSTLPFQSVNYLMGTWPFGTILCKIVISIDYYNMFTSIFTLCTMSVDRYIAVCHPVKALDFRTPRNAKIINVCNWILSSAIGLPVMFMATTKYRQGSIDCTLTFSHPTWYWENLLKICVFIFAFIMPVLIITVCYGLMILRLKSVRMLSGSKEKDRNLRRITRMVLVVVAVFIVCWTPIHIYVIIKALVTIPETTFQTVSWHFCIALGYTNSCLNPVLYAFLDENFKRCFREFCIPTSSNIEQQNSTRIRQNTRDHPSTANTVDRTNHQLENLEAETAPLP
# EXPERIMENT NOTES: Displacement of [3H]DPN from human recombinant mu-type opioid receptor expressed in CHO cell membranes
OBSERVED PROPERTY: Ki (nM)

>>> number("O=C(NCCCN1CCC(c2c(Cl)cccc2Cl)CC1)[C@H]1CCCN1Cc1ccccc1")
191

----------
# ASSAYED SYSTEM: Nociceptin receptor (Homo sapiens)
# EXPERIMENT NOTES: Displacement of [3H]N/OFQ from human recombinant NOP receptor expressed in CHO cells
OBSERVED PROPERTY: Ki (nM)

>>> number("O=C(CNCc1ccccc1)NCCCN1CCC2(CC1)OCc1ccccc12")
60.3
>>> number("N[C@H](Cc1ccccc1)C(=O)NCCCN1CCC2(CC1)OCc1ccccc12")
58.9
>>> number("CN(CCCN1CCC2(CC1)OCc1ccccc12)C(=O)[C@H]1CCCN1Cc1ccccc1")
1150
>>> number("N[C@@H](Cc1ccccc1)C(=O)NCCCN1CCC2(CC1)OCc1ccccc12")
58.9
>>> number("c1ccc(CN2CCC[C@@H]2COCCCN2CCC3(CC2)OCc2ccccc23)cc1")
158
